system under test: neurotensin receptors (Homo sapiens, UniProt P30989)
Sequence (P30989 whole entry): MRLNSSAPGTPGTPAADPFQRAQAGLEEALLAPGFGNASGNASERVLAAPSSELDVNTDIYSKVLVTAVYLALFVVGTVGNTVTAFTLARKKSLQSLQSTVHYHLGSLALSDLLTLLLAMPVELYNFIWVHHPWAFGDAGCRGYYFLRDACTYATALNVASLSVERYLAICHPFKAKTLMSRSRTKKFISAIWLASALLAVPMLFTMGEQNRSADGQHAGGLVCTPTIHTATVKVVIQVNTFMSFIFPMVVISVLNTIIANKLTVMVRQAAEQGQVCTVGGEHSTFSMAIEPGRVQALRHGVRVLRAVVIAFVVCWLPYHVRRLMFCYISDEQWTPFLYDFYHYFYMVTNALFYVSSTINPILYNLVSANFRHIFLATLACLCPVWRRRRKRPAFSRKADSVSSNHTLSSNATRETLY
test method notes: Competitive binding assay on frozen tissue sections of receptor-positive human tumors vs radioiodinated native neurotensin
condition details: Table 3
Where a SMILES comes first, the peptide text is derived from it. [ ]: non-standard residue; d: D form. The star is where a group is joined. ξ: configuration not given here. DTPA = O=C(O)CN(CCN(CC(=O)O)CC(=O)O)CCN(CC(=O)O)CC(=O)*; ξGly(4-Pip(1-amidino)) = N=C(N)N1CCC(C(N)C(=O)O)CC1; ξPhe(4-guanidino) = N=C(N)Nc1ccc(CC(N)C(=O)O)cc1; tBuAla = CC(C)(C)C[C@H](N)C(=O)O; Tle = CC(C)(C)[C@H](N)C(=O)O
Entries and their measured pKd follow.
pKd (log units): -log10 of the concentration in mol/L.

* CC[C@H](C)[C@H](NC(=O)[C@H](Cc1ccc(O)cc1)NC(=O)[C@@H]1CCCN1C(=O)C(Cc1ccc(NC(=N)N)cc1)NC(=O)C(Cc1ccc(NC(=N)N)cc1)NC(=O)[C@@H]1CCCN1C(=O)[C@@H](CCCCN)NC(=O)CN(CCN(CCN(CC(=O)O)CC(=O)O)CC(=O)O)CC(=O)O)C(=O)N[C@@H](CC(C)C)C(=O)O (stereo partly drawn) ({DTPA}-[dK]P[ξPhe(4-guanidino)][ξPhe(4-guanidino)]PYIL-OH) | 6.76

Shift focus to the following entry.
Exercise: State the recorded pKd for this entry: CC(C)(C)C[C@H](NC(=O)[C@@H](NC(=O)[C@H](Cc1ccc(O)cc1)NC(=O)[C@@H]1CCCN1C(=O)[C@H](CCCNC(=N)N)NC(=O)C(NC(=O)[C@@H]1CCCN1C(=O)[C@@H](CCCCN)NC(=O)CN(CCN(CCN(CC(=O)O)CC(=O)O)CC(=O)O)CC(=O)O)C1CCN(C(=N)N)CC1)C(C)(C)C)C(=O)O (stereo partly drawn) ({DTPA}-[dK]P[ξGly(4-Pip(1-amidino))]RPY[Tle][tBuAla]-OH)
Key: 8.14

----------
test method notes: In vitro urine stability assay (HPLC) of In-111 labeled peptide
Format: in vitro ADME
condition details: rat urine, 37EC, 4 hours
Where a SMILES comes first, the peptide text is derived from it. [ ]: non-standard residue; d: D form. The star is where a group is joined. ξ: configuration not given here. DTPA = O=C(O)CN(CCN(CC(=O)O)CC(=O)O)CCN(CC(=O)O)CC(=O)*; ξGly(4-Pip(1-amidino)) = N=C(N)N1CCC(C(N)C(=O)O)CC1; Dmt = Cc1cc(O)cc(C)c1C[C@H](N)C(=O)O; Ala(cPr) = N[C@@H](CC1CC1)C(=O)O; Tle = CC(C)(C)[C@H](N)C(=O)O
% of peptide at 4 hours after incubation at 37EC, Urine for assorted molecules
The answer consists of two parts: a number and, after it, its unit.

Please review the following examples before continuing.
• CC[C@H](C)[C@H](NC(=O)[C@H](Cc1ccc(O)cc1)NC(=O)[C@@H]1CCCN1C(=O)[C@H](CCCNC(=N)N)NC(=O)[C@H](CCCNC(=N)N)NC(=O)CN(CCN(CCN(CC(=O)O)CC(=O)O)CC(=O)O)CC(=O)O)C(=O)N[C@@H](CC(C)C)C(=O)O [DTPA-Arg-Arg-Pro-Tyr-Ile-Leu-OH, reference compound] = 13.0%
• Cc1cc(O)cc(C)c1C[C@H](NC(=O)[C@@H]1CCCN1C(=O)[C@H](CCCNC(=N)N)NC(=O)C(NC(=O)[C@@H]1CCCN1C(=O)[C@@H](CCCCN)NC(=O)CN(CCN(CCN(CC(=O)O)CC(=O)O)CC(=O)O)CC(=O)O)C1CCN(C(=N)N)CC1)C(=O)N[C@H](C(=O)N[C@@H](CC(C)C)C(=O)O)C(C)(C)C (stereo partly drawn) ({DTPA}-[dK]P[ξGly(4-Pip(1-amidino))]RP[Dmt][Tle]L-OH) = 99.2%

We next turn to a different molecule, shown below.
Exercise: Which % of peptide at 4 hours after incubation at 37EC, Urine value is on record for CC(C)(C)[C@H](NC(=O)[C@H](Cc1ccc(O)cc1)NC(=O)[C@@H]1CCCN1C(=O)[C@H](CCCNC(=N)N)NC(=O)C(NC(=O)[C@@H]1CCCN1C(=O)[C@@H](CCCCN)NC(=O)CN(CCN(CCN(CC(=O)O)CC(=O)O)CC(=O)O)CC(=O)O)C1CCN(C(=N)N)CC1)C(=O)N[C@@H](CC1CC1)C(=O)O (stereo partly drawn) ({DTPA}-[dK]P[ξGly(4-Pip(1-amidino))]RPY[Tle][Ala(cPr)]-OH) ?
Key: 73.6%

----------
test method notes: In vitro urine stability assay (HPLC) of In-111 labeled peptide
Type: in vitro ADME
condition details: rat, 37EC, t = 4 h, read-out: HPLC Evaluation of Urine Stability at 37EC, Urine, t = 4 h
Where a SMILES comes first, the peptide text is derived from it. [ ]: non-standard residue; d: D form. The star is where a group is joined. DTPA = O=C(O)CN(CCN(CC(=O)O)CC(=O)O)CCN(CC(=O)O)CC(=O)*; Phe(4-guanidino) = N=C(N)Nc1ccc(C[C@H](N)C(=O)O)cc1
Listed here: items and their measured remaining at 4 h.
Your reply should be a number followed by the unit it is expressed in.

Past entries and their recorded results:
- CC[C@H](C)[C@H](NC(=O)[C@H](Cc1ccc(O)cc1)NC(=O)[C@@H]1CCCN1C(=O)[C@H](CCCN=C(N)N)NC(=O)[C@H](Cc1ccc(NC(=N)N)cc1)NC(=O)[C@@H]1CCCN1C(=O)[C@@H](CCCCN)NC(=O)CN(CCN(CCN(CC(=O)O)CC(=O)O)CC(=O)O)CC(=O)O)C(=O)N[C@@H](CC(C)C)C(=O)O [In-111-DTPA-DK-P-F(Gu)-R-P-Y-I-L, metal not drawn]: 1.5%
- CC[C@H](C)[C@H](NC(=O)[C@H](Cc1ccc(O)cc1)NC(=O)[C@@H]1CCCN1C(=O)[C@H](Cc1ccc(NC(=N)N)cc1)NC(=O)[C@H](Cc1ccc(NC(=N)N)cc1)NC(=O)[C@@H]1CCCN1C(=O)[C@@H](CCCCN)NC(=O)CN(CCN(CCN(CC(=O)O)CC(=O)O)CC(=O)O)CC(=O)O)C(=O)N[C@@H](CC(C)C)C(=O)O [In-111-DTPA-DK-P-F(Gu)-F(Gu)-P-Y-I-L, metal not drawn] ({DTPA}-[dK]P[Phe(4-guanidino)][Phe(4-guanidino)]PYIL-OH; C-terminus assumed): 2.3%
- CC[C@H](C)[C@H](NC(=O)[C@H](Cc1ccc(O)cc1)NC(=O)[C@@H]1CCCN1C(=O)[C@H](CCCNC(=N)N)NC(=O)C(NC(=O)[C@@H]1CCCN1C(=O)[C@@H](CCCCN)NC(=O)CN(CCN(CCN(CC(=O)O)CC(=O)O)CC(=O)O)CC(=O)O)C1CCN(C(=N)N)CC1)C(=O)N[C@@H](CC(C)C)C(=O)O (single isomer, unassigned) [In-111-DTPA-DK-P-G(PipAm)-R-P-Y-I-L, metal not drawn]: 16.6%
- CC[C@H](C)[C@H](NC(=O)[C@H](Cc1ccc(O)cc1)NC(=O)[C@@H]1CCCN1C(=O)C(Cc1ccc(NC(=N)N)cc1)NC(=O)[C@H](CCCNC(=N)N)NC(=O)[C@@H]1CCCN1C(=O)[C@@H](CCCCN)NC(=O)CN(CCN(CCN(CC(=O)O)CC(=O)O)CC(=O)O)CC(=O)O)C(=O)N[C@@H](CC(C)C)C(=O)O (single isomer, unassigned) [In-111-DTPA-DK-P-R-F(Gu)-P-Y-I-L, metal not drawn]: 0%
- CC[C@H](C)[C@H](NC(=O)[C@H](Cc1ccc(O)cc1)NC(=O)[C@@H]1CCCN1C(=O)C(CCc1ccnc(N)n1)NC(=O)[C@H](CCCNC(=N)N)NC(=O)[C@@H]1CCCN1C(=O)[C@@H](CCCCN)NC(=O)CN(CCN(CCN(CC(=O)O)CC(=O)O)CC(=O)O)CC(=O)O)C(=O)N[C@@H](CC(C)C)C(=O)O (single isomer, unassigned) [In-111-DTPA-DK-P-R-Aba(Apy)-P-Y-I-L, metal not drawn]: 4.7%

Exercise: Data request, read-out remaining at 4 h, for CC[C@H](C)[C@H](NC(=O)[C@H](Cc1ccc(O)cc1)NC(=O)[C@@H]1CCCN1C(=O)[C@H](CCCNC(=N)N)NC(=O)C(CCc1ccnc(N)n1)NC(=O)[C@@H]1CCCN1C(=O)[C@@H](CCCCN)NC(=O)CN(CCN(CCN(CC(=O)O)CC(=O)O)CC(=O)O)CC(=O)O)C(=O)N[C@@H](CC(C)C)C(=O)O (single isomer, unassigned) [In-111-DTPA-DK-P-Aba(Apy)-R-P-Y-J-L, metal not drawn]
Key: 6%
